All figures here come from PubChem BioAssay AID540364.

Please go through the items and note down their activation.
- Experiment summary: FXN promoter activators, primary screen, cell-based, luciferase luminescence, HEK293 lucGAA850 (AID 540364);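 further: 0% = DMSO wells and 100% = 10 µM SAHA wells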
- Condition context: HEK293 lucGAA850 FXN promoter luciferase reporter, 24 h; at 6 µM; hits give high values; percent of 10 µM SAHA response
The whole screen tested about 360,000 compounds, of which about 2,000 (0.56%) were called active. The list comes from a sample in which actives are over-represented; it also holds close analogues and randomly drawn compounds.
Your answer should be a plain number; it is taken to be in %.

Per the record, CC(=O)N1CC2(C)CN(C(C)=O)CC(C)(C1)C2=O has activation of 1.87

Record summary for COc1ccc(S(=O)(=O)NCCCCOc2ccc(Cl)cc2)cc1 : reported activation = 1.56

activation for c1ccc(-c2c[nH]c(-c3ccccc3)c2)cc1 is 1.7

// sample COc1ccc(N(CC(=O)N2CCCCCC2)S(=O)(=O)c2ccccc2)cc1 , its activation was -0.03

Measured activation of CC(C)[C@H](NC(=O)c1ccc(F)cc1)C(=O)OCC(=O)NC(=O)c1cccn1C : 0.53

activation for OC(c1ccc(Cl)c(F)c1)c1ncc(-c2ccccc2Cl)[nH]1 (configuration not stated) is 0.22

activation for O=C(Nc1ccc(Cl)cn1)c1ccccc1-c1ccccc1 is 0.22

Entry Cc1ccsc1C(=O)NCCc1ccco1 ; activation = 2.23

Value of measured activation for the entry COc1ccccc1N1CCN(C(=O)c2cc(-c3ccc(Br)cc3)on2)CC1 : 17.8

For this compound ( c1ccc(-c2cc(-c3ccccc3)[nH]n2)cc1 ), measured activation is 10.4

CSc1ccccc1-c1nnc(-c2ccc(Cl)cc2)o1 has a reported activation of 5.35

Entry O=C1CSC2=NCN(c3ccccc3)CN12 — recorded activation = 1.46

---

- Experiment summary: FXN promoter activators, primary screen, cell-based, luciferase luminescence, HEK293 lucGAA850 (AID 540364);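 further: 0% = DMSO wells and 100% = 10 µM SAHA wells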
- Condition context: HEK293 lucGAA850 FXN promoter luciferase reporter, 24 h; at 6 µM; percent of 10 µM SAHA response
Out of some 360,000 compounds screened, about 2,000 (0.56%) were called active.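 How the source made its calls: active means activation above the average of all compounds screened plus 3 SD, cutoff fixed separately per campaign (cut at about 7.5% in these data); inactive means the rest.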 The full list was thinned out, with actives kept by preference.
Respond only with the outcome that fits, drawn from yes (1) (active), no (0) (inactive)

Inquiry: Fill in: this test's call for CCCc1c(C(=O)O)cnn1-c1ccc(Cl)cc1 is ___
Reply text: no (0)

Inquiry: Short answer needed: outcome of this test for COc1ccc(CCNS(=O)(=O)c2cc3c(cc2C)NC(=O)CO3)cc1OC ?
Reply text: no (0)

Inquiry: What did the test return for O=C1CCN(C(=O)Nc2ccccc2)N1 ?
Reply text: no (0)

Inquiry: Which outcome was entered for the compound O=C(N/N=C/c1ccco1)c1csc2c1CCCC2 in this test?
Reply text: no (0)

Inquiry: Outcome logged for COc1ccccc1-c1nc(C(F)(F)F)c(OC)o1 in this assay:
Reply text: no (0)

Inquiry: Lab log entry: CCOc1cc(CNCc2ccccn2)ccc1OCC(=O)NC(C)(C)C — outcome as called in the assay?
Reply text: no (0)

Inquiry: Recorded test outcome, item O=C(N[C@H]1C/C=C\C(c2cccc(F)c2)N(Cc2ccccc2)C(=O)C1)OCC1c2ccccc2-c2ccccc21 (some centres not stated)
Reply text: no (0)

Inquiry: Which outcome was assigned to COc1ccc(/C=C/C(=O)Nc2ccc(C34CC5CC(CC(O)(C5)C3)C4)cc2)cc1OC in this test?
Reply text: yes (1)

Inquiry: For COc1ccc2[nH]c(=O)c(CN(Cc3nnnn3CCc3ccccc3)CC3CCCO3)cc2c1 (configuration not stated) , what call appears in the results of this test?
Reply text: yes (1)

Inquiry: Record request — test call for COc1cc(OC)cc(-c2c(-c3cccs3)c3cc(-c4ccc(OC)cc4F)ccc3n2C)c1
Reply text: no (0)

Inquiry: Recorded test call requested for CCC(c1nnnn1Cc1ccccc1)N(Cc1cc2cc(OC)ccc2[nH]c1=O)CC1CCCO1 (configuration not stated)
Reply text: no (0)

Inquiry: Assay result, entry O=C(Nc1ccc(F)cc1)c1cc2c(s1)CCCC2 — outcome?
Reply text: no (0)

Inquiry: Just curious, what result did COc1ccccc1C1=Nc2cccc3cccc(c23)N1 get here?
Reply text: yes (1)

Inquiry: What is the recorded call for this compound in the test? O=C(NCC1(N2CCCCC2)CCCCC1)c1ccc(NS(=O)(=O)c2ccc(F)cc2)cc1
Reply text: no (0)

Inquiry: # outcome recorded in this test, key = COc1ccc(/C=C/C(=O)Nc2ccc(C)cc2)cc1S(=O)(=O)N1CCOCC1
Reply text: no (0)

Inquiry: Test call, this compound: Cc1cc(C(=O)NCCc2ccc(Cl)cc2)c(C)o1
Reply text: no (0)

Inquiry: Assay outcome for Cc1ccc(C)c(OCCC(=O)OCC(=O)NC(=O)NCc2ccccc2)c1 : what was it?
Reply text: no (0)

Inquiry: Outcome? CCc1noc(C)c1C(=O)N1CCN(S(=O)(=O)c2cccc(C(F)(F)F)c2)CC1
Reply text: no (0)

Inquiry: Hi, do you know how CCOC(=O)C1Sc2[nH]c(=O)sc2C(c2ccc(Cl)cc2)C1C(=O)OCC (configuration not stated) came out in this test?
Reply text: no (0)

Inquiry: # lookup: test call for O=C(N/N=C/C=C/c1ccco1)c1cccs1
Reply text: yes (1)

Inquiry: For this compound, state the assay outcome: CCOc1ccc2[nH]c(=O)c(CN(Cc3nnnn3CCc3ccccc3)CC3CCCO3)cc2c1 (configuration not stated)
Reply text: no (0)

Inquiry: Kindly provide the recorded test outcome for the following compound: CCn1c(=O)c(=O)n(CC)c2cc(S(=O)(=O)N3CCc4ccccc43)ccc21
Reply text: no (0)

---

- Experiment summary: FXN promoter activators, primary screen, cell-based, luciferase luminescence, HEK293 lucGAA850 (AID 540364);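 further: 0% = DMSO wells and 100% = 10 µM SAHA wells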
- Condition context: HEK293 lucGAA850 FXN promoter luciferase reporter, 24 h; at 6 µM; percent of 10 µM SAHA response
Out of some 360,000 compounds screened, about 2,000 (0.56%) were called active.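 The calls were made as follows: active = activation above the average of all compounds screened plus 3 SD, cutoff fixed separately per campaign (cut at about 7.5% in these data); inactive = the rest.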 The full list was thinned out, with actives kept by preference.
The reply should be one of these categories: true (1) for active, false (0) for inactive

Inquiry: Tell me the assay call for CC1(C(=O)NS(=O)(=O)c2ccccc2Cl)CCN1C(=O)c1cccc(F)c1 (stereo not given) please.
Reply text: false (0)

Inquiry: Could you kindly confirm the outcome this assay logged for Cc1ccc(C)c(NC(=O)c2ccc3nccnc3c2)c1 ?
Reply text: false (0)

Inquiry: Which result was noted for this compound in the test: O=C(COc1ccc2ccc(=O)oc2c1)NCC(O)c1ccccc1 (stereo not given)
Reply text: false (0)

Inquiry: Identify the outcome logged in this assay for the compound shown: CCOC(=O)C1CCN(C(=O)CN2C(=O)NC(C)(c3ccc4cc(OC)ccc4c3)C2=O)CC1 (stereo not given)
Reply text: false (0)

Inquiry: How was CC(=O)c1ccc(-c2cnc3c(NC=O)cc(-c4cccc(NS(C)(=O)=O)c4)cn23)cc1 classified in this test?
Reply text: false (0)

Inquiry: What outcome does the record of this test show for CC(C)CCC(C)NC(=O)c1ccc2nccnc2c1 (stereo not given) ?
Reply text: true (1)

Inquiry: For CCOC(=O)C1CCN(C(=O)c2ccc3c(=O)n4nc(Nc5ccccc5CC)sc4nc3c2)CC1 , what call appears in the results of this test?
Reply text: false (0)

Inquiry: Which result was noted for this compound in the test: CN(N)c1nc(N2CCCC2)nc(N2CCCC2)n1
Reply text: false (0)

Inquiry: What classification did CCN1CCN(c2nc(Nc3cccc(F)c3)nc(N)c2[N+](=O)[O-])CC1 end up with in this test?
Reply text: false (0)

Inquiry: Could you check what this test reported for COc1ccc(Nc2nc(NCc3ccco3)nc(N/N=C/c3ccccc3Cl)n2)cc1 ?
Reply text: false (0)

---

Exercise: state measured activation for each of the compounds provided.
- Experiment summary: FXN promoter activators, primary screen, cell-based, luciferase luminescence, HEK293 lucGAA850 (AID 540364);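 further: 0% = DMSO wells and 100% = 10 µM SAHA wells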
- Condition context: HEK293 lucGAA850 FXN promoter luciferase reporter, 24 h; at 6 µM; hits give high values; percent of 10 µM SAHA response
About 2,000 (0.56%) of roughly 360,000 compounds were called active. Shown is part of a subset that was picked to be rich in actives.

The recorded activation for CNC(=O)c1cccc2nc3ccccc3nc12 is 3.97% (inactive)

// activation lookup, compound = CN1CCc2nc(SC(C(=O)O)c3ccccc3)c(C#N)c(-c3cccs3)c2C1 (stereo unspecified) , result: 1.01% (inactive)

Item: O=C1C=C(c2ccnc3cc(Cl)ccc23)C[C@@H](c2ccc3c(c2)OCO3)C1 | activation: -1.07% (inactive)

activation for CCc1c(-c2ccccc2)nc(N)c(C#N)c1-c1cccs1 is 3.81% (inactive)

Kindly note the recorded activation for CCOC(=O)C1(C)CCCN(C(=O)c2cccc(Cl)c2)C1 (stereo unspecified) , which is -0.57% (inactive)

Note to self: activation recorded for CCOC(=O)C1=C(O)/C(=C/c2ccc(OCC(=O)Nc3ccc(C)cc3)cc2)N=C1C was -1.6% (inactive)

The reported activation of the compound CCCN(CCC)CCNC(=O)c1cc2c(C)nc3ccccc3c2o1 was -0.61% (inactive)

# activation of CCCCc1nc2c(=O)[nH]c3ccccc3c2o1 = 3.48% (inactive)

The compound identified as Cc1ccc(OCC(=O)Nc2ccc(-c3nnc(-c4ccco4)o3)cc2)cc1 registered its activation at 9.76% (active)

// CCOC(=O)c1ccc(-c2ccc3ncnc(N(C)Cc4sccc4C)c3c2)o1 : activation value = 4.4% (inactive)

// activation lookup, compound = Cc1c(-c2ccccc2)nc(N)c(C#N)c1-c1cccs1 , result: 8.43% (active)
